# assay protocol: in vivo
# measurement setup: male, Dutch Belted, rabbit, 0.025 mg/eye, Mean concentration in retina
Where a SMILES comes first, the peptide text is derived from it.
attribute measured: tissue level at time at 168 h

CC[C@H](C)[C@H](NC(=O)[C@H](Cc1ccc(O)cc1)NC(=O)[C@H](CC(N)=O)NC(=O)[C@@H](NC(=O)[C@H](C)NC(=O)CNC(=O)[C@H](CC(C)C)NC(=O)[C@H](Cc1ccc(O)cc1)NC(=O)[C@@H](NC(=O)[C@H](Cc1cnc[nH]1)NC(=O)[C@@H](N)Cc1cnc[nH]1)[C@@H](C)CC)C(C)C)C(=O)N[C@@H](Cc1ccc(O)cc1)C(N)=O [Compound 1] (H-HHIYLGAVNYIY-NH2)	912 ng/g

###

# assay protocol: in vivo
# measurement setup: male, Dutch Belted, rabbit, 0.05 mg/eye, Mean concentration in retina
Where a SMILES comes first, the peptide text is derived from it.
attribute measured: tissue level at time at 168 h (ng/g)

CC[C@H](C)[C@H](NC(=O)[C@H](Cc1ccc(O)cc1)NC(=O)[C@H](CC(N)=O)NC(=O)[C@@H](NC(=O)[C@H](C)NC(=O)CNC(=O)[C@H](CC(C)C)NC(=O)[C@H](Cc1ccc(O)cc1)NC(=O)[C@@H](NC(=O)[C@H](Cc1cnc[nH]1)NC(=O)[C@@H](N)Cc1cnc[nH]1)[C@@H](C)CC)C(C)C)C(=O)N[C@@H](Cc1ccc(O)cc1)C(N)=O [Compound 1] (H-HHIYLGAVNYIY-NH2)	51

###

# assay protocol: in vivo
# measurement setup: male, Dutch Belted, rabbit, 0.1 mg/eye, Mean concentration in retina
Where a SMILES comes first, the peptide text is derived from it.
attribute measured: tissue level at time at 72 h

CC[C@H](C)[C@H](NC(=O)[C@H](Cc1ccc(O)cc1)NC(=O)[C@H](CC(N)=O)NC(=O)[C@@H](NC(=O)[C@H](C)NC(=O)CNC(=O)[C@H](CC(C)C)NC(=O)[C@H](Cc1ccc(O)cc1)NC(=O)[C@@H](NC(=O)[C@H](Cc1cnc[nH]1)NC(=O)[C@@H](N)Cc1cnc[nH]1)[C@@H](C)CC)C(C)C)C(=O)N[C@@H](Cc1ccc(O)cc1)C(N)=O [Compound 1] (H-HHIYLGAVNYIY-NH2)	1630 ng/g

###

# assay protocol: in vivo
# measurement setup: male, Dutch Belted, rabbit, 0.05 mg/eye, Calculated Concentration in vitreous humor
Where a SMILES comes first, the peptide text is derived from it.
attribute measured: level at 168 h (ng/mL)

CC[C@H](C)[C@H](NC(=O)[C@H](Cc1ccc(O)cc1)NC(=O)[C@H](CC(N)=O)NC(=O)[C@@H](NC(=O)[C@H](C)NC(=O)CNC(=O)[C@H](CC(C)C)NC(=O)[C@H](Cc1ccc(O)cc1)NC(=O)[C@@H](NC(=O)[C@H](Cc1cnc[nH]1)NC(=O)[C@@H](N)Cc1cnc[nH]1)[C@@H](C)CC)C(C)C)C(=O)N[C@@H](Cc1ccc(O)cc1)C(N)=O [Compound 1] (H-HHIYLGAVNYIY-NH2)	25900

###

# assay protocol: in vivo
# measurement setup: male, Dutch Belted, rabbit, 0.1 mg/eye, Calculated Concentration in vitreous humor
Where a SMILES comes first, the peptide text is derived from it.
attribute measured: level at 240 h (µg/mL)

CC[C@H](C)[C@H](NC(=O)[C@H](Cc1ccc(O)cc1)NC(=O)[C@H](CC(N)=O)NC(=O)[C@@H](NC(=O)[C@H](C)NC(=O)CNC(=O)[C@H](CC(C)C)NC(=O)[C@H](Cc1ccc(O)cc1)NC(=O)[C@@H](NC(=O)[C@H](Cc1cnc[nH]1)NC(=O)[C@@H](N)Cc1cnc[nH]1)[C@@H](C)CC)C(C)C)C(=O)N[C@@H](Cc1ccc(O)cc1)C(N)=O [Compound 1] (H-HHIYLGAVNYIY-NH2)	79.4

###

# assay protocol: in vivo
# measurement setup: male, Dutch Belted, rabbit, 0.1 mg/eye, Calculated Concentration in retina
Where a SMILES comes first, the peptide text is derived from it.
attribute measured: tissue level at time at 240 h (ng/g)

CC[C@H](C)[C@H](NC(=O)[C@H](Cc1ccc(O)cc1)NC(=O)[C@H](CC(N)=O)NC(=O)[C@@H](NC(=O)[C@H](C)NC(=O)CNC(=O)[C@H](CC(C)C)NC(=O)[C@H](Cc1ccc(O)cc1)NC(=O)[C@@H](NC(=O)[C@H](Cc1cnc[nH]1)NC(=O)[C@@H](N)Cc1cnc[nH]1)[C@@H](C)CC)C(C)C)C(=O)N[C@@H](Cc1ccc(O)cc1)C(N)=O [Compound 1] (H-HHIYLGAVNYIY-NH2)	559

###

# assay protocol: in vivo
# measurement setup: Brown Norway, rat, 0.3 ug/eye, Mean concentration in rat retina
Where a SMILES comes first, the peptide text is derived from it.
attribute measured: tissue level at time at 24 h (ng/g)

CC[C@H](C)[C@H](NC(=O)[C@H](Cc1ccc(O)cc1)NC(=O)[C@H](CC(N)=O)NC(=O)[C@@H](NC(=O)[C@H](C)NC(=O)CNC(=O)[C@H](CC(C)C)NC(=O)[C@H](Cc1ccc(O)cc1)NC(=O)[C@@H](NC(=O)[C@H](Cc1cnc[nH]1)NC(=O)[C@@H](N)Cc1cnc[nH]1)[C@@H](C)CC)C(C)C)C(=O)N[C@@H](Cc1ccc(O)cc1)C(N)=O [Compound 1] (H-HHIYLGAVNYIY-NH2)	1210

###

# assay protocol: in vivo
# measurement setup: Brown Norway, rat, 0.3 ug/eye, Mean concentration in rat retina
Where a SMILES comes first, the peptide text is derived from it.
attribute measured: tissue level at time at 72 h (ng/g)

CC[C@H](C)[C@H](NC(=O)[C@H](Cc1ccc(O)cc1)NC(=O)[C@H](CC(N)=O)NC(=O)[C@@H](NC(=O)[C@H](C)NC(=O)CNC(=O)[C@H](CC(C)C)NC(=O)[C@H](Cc1ccc(O)cc1)NC(=O)[C@@H](NC(=O)[C@H](Cc1cnc[nH]1)NC(=O)[C@@H](N)Cc1cnc[nH]1)[C@@H](C)CC)C(C)C)C(=O)N[C@@H](Cc1ccc(O)cc1)C(N)=O [Compound 1] (H-HHIYLGAVNYIY-NH2)	570

###

# assay protocol: in vivo
# measurement setup: male, Dutch Belted, rabbit, 0.05 mg/eye, Mean concentration in retina
Where a SMILES comes first, the peptide text is derived from it.
attribute measured: tissue level at time at 240 h (ng/g)

CC[C@H](C)[C@H](NC(=O)[C@H](Cc1ccc(O)cc1)NC(=O)[C@H](CC(N)=O)NC(=O)[C@@H](NC(=O)[C@H](C)NC(=O)CNC(=O)[C@H](CC(C)C)NC(=O)[C@H](Cc1ccc(O)cc1)NC(=O)[C@@H](NC(=O)[C@H](Cc1cnc[nH]1)NC(=O)[C@@H](N)Cc1cnc[nH]1)[C@@H](C)CC)C(C)C)C(=O)N[C@@H](Cc1ccc(O)cc1)C(N)=O [Compound 1] (H-HHIYLGAVNYIY-NH2)	27.3

###

# assay protocol: pH-solubility titration (visual: precipitate, turbidity, viscosity, gel)
# Assay type: physicochemical
# measurement setup: pH 2.4
Where a SMILES comes first, the peptide text is derived from it.
attribute measured: solubility

CC[C@H](C)[C@H](NC(=O)[C@H](Cc1ccc(O)cc1)NC(=O)[C@H](CC(N)=O)NC(=O)[C@@H](NC(=O)[C@H](C)NC(=O)CNC(=O)[C@H](CC(C)C)NC(=O)[C@H](Cc1ccc(O)cc1)NC(=O)[C@@H](NC(=O)[C@H](Cc1cnc[nH]1)NC(=O)[C@@H](N)Cc1cnc[nH]1)[C@@H](C)CC)C(C)C)C(=O)N[C@@H](Cc1ccc(O)cc1)C(N)=O [Compound 1] (H-HHIYLGAVNYIY-NH2)	≥ 40 mg/mL

###

# assay protocol: in vivo
# measurement setup: male, Dutch Belted, rabbit, 0.1 mg/eye, Mean concentration in retina
Where a SMILES comes first, the peptide text is derived from it.
attribute measured: tissue level at time at 24 h (ng/g)

CC[C@H](C)[C@H](NC(=O)[C@H](Cc1ccc(O)cc1)NC(=O)[C@H](CC(N)=O)NC(=O)[C@@H](NC(=O)[C@H](C)NC(=O)CNC(=O)[C@H](CC(C)C)NC(=O)[C@H](Cc1ccc(O)cc1)NC(=O)[C@@H](NC(=O)[C@H](Cc1cnc[nH]1)NC(=O)[C@@H](N)Cc1cnc[nH]1)[C@@H](C)CC)C(C)C)C(=O)N[C@@H](Cc1ccc(O)cc1)C(N)=O [Compound 1] (H-HHIYLGAVNYIY-NH2)	596

###

# assay protocol: in vivo
# measurement setup: male, Dutch Belted, rabbit, 0.05 mg/eye, Calculated Concentration in vitreous humor
Where a SMILES comes first, the peptide text is derived from it.
attribute measured: level at 72 h

CC[C@H](C)[C@H](NC(=O)[C@H](Cc1ccc(O)cc1)NC(=O)[C@H](CC(N)=O)NC(=O)[C@@H](NC(=O)[C@H](C)NC(=O)CNC(=O)[C@H](CC(C)C)NC(=O)[C@H](Cc1ccc(O)cc1)NC(=O)[C@@H](NC(=O)[C@H](Cc1cnc[nH]1)NC(=O)[C@@H](N)Cc1cnc[nH]1)[C@@H](C)CC)C(C)C)C(=O)N[C@@H](Cc1ccc(O)cc1)C(N)=O [Compound 1] (H-HHIYLGAVNYIY-NH2)	39.6 µg/mL
